B1: H2-Kb / E4 (parent)
chain 1: AQSVTQPDARVTVSEGASLQLRCKYSYSGTPYLFWYVQYPRQGLQLLLKYYSGDPVVQGVNGFEAEFIKSNSSFHLRKASVHWSDSAVYFCAVSAGQGGSAKLIFGEGTKLTVSS
chain 2: GGIITQTPKFLIGQEGQKLTLKCQQNFNHDTMYWYRQDSGKGLRLIYYSITENDLQKGDLSEGYDASREKKSSFSLTVTSAQKNEMAVFLCASSIWGDSYEQYFGPGTRLTVL
chain 3: not shown
chain 4: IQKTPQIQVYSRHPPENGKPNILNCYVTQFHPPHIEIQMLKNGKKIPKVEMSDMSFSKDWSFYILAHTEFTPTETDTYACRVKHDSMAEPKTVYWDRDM
chain 5: SIINFEKL

Variants of: B1
Test: % of reporter cells activated (NFAT-GFP), raw; also: test concentration or dose not given here
Conditions: with E4
// not met strictly below 0.8 in ratio to parent; met otherwise

1) chain 5 I2G = met
2) chain 5 I2V = met
3) chain 5 I3E = met
4) chain 5 I2E = met
5) chain 5 I2R = not met
6) chain 5 L8Y = not met
7) chain 5 K7P = not met
8) chain 5 K7G = met
9) chain 5 I3K = met
10) chain 5 I2M = met

Problem: Exam item: decide whether the reported ratio to parent for chain 5 I3L is at least 0.8.
Result: met

Problem: Exam item: decide whether the reported ratio to parent for chain 5 F5P is at least 0.8.
Result: not met

Problem: Exam item: decide whether the reported ratio to parent for chain 5 S1K is at least 0.8.
Result: met

Problem: Exam item: decide whether the reported ratio to parent for chain 5 S1L is at least 0.8.
Result: met

Problem: Exam item: decide whether the reported ratio to parent for chain 5 I3S is at least 0.8.
Result: not met

Problem: Exam item: decide whether the reported ratio to parent for chain 5 S1H is at least 0.8.
Result: met

Origin of measurements: paper PMC11480844
